Biological target: T1, HuCD28-HuIgG1 (fusion protein of the extracellular part of human CD28 and human Fc gamma 1, R&D Systems Cat … (human, UniProt P10747 19-152; P01857 100-330 = IgG part)
T1 construct: extracellular domain;domain: Fc; bought; also called CD28-Ig; hCD28-Fc
Assay: competition ELISA, CD28-hFc in solution; blocked ligand coated B7-1-muFc
Entries annotated with measured IC50 (read off the curve)

{"BINDER": "65C4 (VHH, Nanobody against CD28) VHH: EVQLVESGGGLVQAGGSLRLSCKAAGRTFSSYAMGWFRQAPGKEREFVASIEWDGGGAYYEEAVKGRFTISRDNTKNTVYLQMDSLRPEDTAVYYCAASRWRTALTNYYDVADWGQGTQVTVSS", "IC50 (read off the curve)": "~100 nM"}

With those in mind, consider the next binder.
// field: IC50 (read off the curve); key: 70F10 (VHH, Nanobody against CD28) VHH: EVQLVESGGGLVQAGGSLRLSCAASGFTFDDYAIGWFRQAPGKEREGVACVSNSDGSTYYANSVKGRFTISSDNAKNTVYLQMNSLKPEDTAVYYCAADSRCWGWGMLHMRHGDRGQGTQVTVSS ; value = ~200 nM
